Hey, just so you know, these numbers are from ChEMBL document CHEMBL3433997.

Would you kindly list inhibition for each of these compounds?
biological target: Hexose transporter 1 (Plasmodium falciparum); test: ST_JUDE_LEISH: Cytotoxicity at 2uM final concentration against transgenic Leishmania Mexicana promastigotes LmPfHT that are glucose transport deficient and complemented with the Plasmodium falciparum hexose transporter. Activity is measured by DNA content using SYBR green in vitro; assay type: functional
Dear colleague, please return just the value in %, with no unit written.

The reported inhibition of the compound C#CCNCc1ccc(-c2ccc(-c3nc4cc(C(F)(F)F)ccc4[nH]3)s2)cc1 was -0.12

Entry under test: O=S(=O)(c1ccccc1Cl)N1CCCCC(c2ccc(C(F)(F)F)cc2)=N1 . Its inhibition was 2.48

Recorded result, COc1ccc(C2C(C(=O)OC3CCCC3)=C(C)NC3=C2C(=O)CCC3)cc1Br (centres undefined) , inhibition: -0.27

For NC(=O)c1ccccc1OCC(=O)Nc1ccc(-c2cccc(-c3nc4cc(C(F)(F)F)ccc4[nH]3)c2)cc1 the compound record lists inhibition as -0.46
